- Protocol Details: Vapor pressure of fragrance components
Outcome Measure: Vapor Pressure mm/Hg at 25° C. (mm/Hg)

Would you please look over these solved cases?
C=CC(C)(CCC=C(C)C)OC(C)=O (stereo not drawn) [linalyl acetate] :: 0.07
CC(C=O)Cc1ccc(C(C)C)cc1 (stereo not drawn) :: 0.004
CC1(C)[C@H]2CC[C@]1(C)[C@H](O)C2 :: 0.02

a = C=CC(C)(O)CCC=C(C)C (stereo not drawn)
b = CC(=O)OC(C)c1ccccc1 (stereo not drawn) [styralyl acetate]
**Query** Hi! Which is lower in terms of Vapor Pressure mm/Hg at 25° C., the first one a or the second one b ? Answer = label.
**Result** a

A = CC(=O)O[C@@H]1C[C@H]2CC[C@]1(C)C2(C)C (racemic) [isobornyl acetate]
B = OCCc1ccccc1
**Query** Sorting by Vapor Pressure mm/Hg at 25° C. in descending order, would A or B appear first? Kindly give the label for the entry you pick.
**Result** A
(A: 0.09 mm/Hg, B: 0.02 mm/Hg)

====

- Protocol Details: Vapor pressure of fragrance components
Outcome Measure: Vapor Pressure mm/Hg at 25° C. (mm/Hg)

C=CCc1ccc(OC)cc1 [methyl chavicol] :: 0.09

P = C=CCOC(=O)COCCC(C)C [allyl amyl glycolate]
Q = CC(C=O)Cc1ccc(C(C)(C)C)cc1 (centres unmarked) [LILIAL ®]
R = CC/C=C\CCOC(C)=O [cis-3-hexenyl acetate]
**Query** Rank entries according to their Vapor Pressure mm/Hg at 25° C., from the largest number down. Reply format: the labels, ordered as requested.
**Result** R, P, Q

This collection of values is drawn from patent US6645479B1.
